# tgt: CB2R (Homo sapiens)
# Sequence (P34972 whole entry): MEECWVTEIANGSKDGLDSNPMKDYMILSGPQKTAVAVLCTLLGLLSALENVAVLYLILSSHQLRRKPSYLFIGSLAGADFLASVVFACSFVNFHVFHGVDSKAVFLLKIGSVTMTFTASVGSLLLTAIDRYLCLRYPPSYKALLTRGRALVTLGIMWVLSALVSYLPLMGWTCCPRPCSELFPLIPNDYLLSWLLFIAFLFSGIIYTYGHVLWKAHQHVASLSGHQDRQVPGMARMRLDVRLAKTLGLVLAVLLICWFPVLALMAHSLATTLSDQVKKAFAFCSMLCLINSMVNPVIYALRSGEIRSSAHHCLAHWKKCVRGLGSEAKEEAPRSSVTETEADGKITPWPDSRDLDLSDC
# method summary: CB2R MAPK phosphorylation
# Type: cell-based
# Parameters: expressed in transfected cells; host or cells: HEK-293T, transient transfection (PEI)
# particulars: normalized to CP 55,940
Could you label it t if measured Emax is 90% or higher, and f otherwise?

[[record]]
molecule = "NC(=O)[C@@H]1CCCCN1C(=O)c1cn(CC2CCCCC2)c2ccccc12 [18e]"
tgt = "CB2R (Homo sapiens)"
category_label = "f"

[[record]]
molecule = "NC(=O)[C@@H]1CCCCN1C(=O)c1nn(Cc2ccc(F)cc2)c2ccccc12 [18o]"
tgt = "CB2R (Homo sapiens)"
category_label = "f"

[[record]]
molecule = "NC(=O)[C@H]1CCCCN1C(=O)c1nn(Cc2ccc(F)cc2)c2ccccc12 [18p]"
tgt = "CB2R (Homo sapiens)"
category_label = "f"

[[record]]
molecule = "NC(=O)[C@H]1CCCCN1C(=O)c1cn(CC2CCCCC2)c2ccccc12 [18f]"
tgt = "CB2R (Homo sapiens)"
category_label = "t"

